- Test description: Pharmacokinetic characteristics in rats after intravenous administration (plasma, LC-MS/MS)
- Format: in vivo
- Recorded conditions: SD rats, intravenous (tail vein), 10 mg/kg
Where no end group is shown, it is not given here.

{"Substance": "Ac-YGRKKRRQRRRKKNRNKLRRQHSY-NH2 [Example 7]", "T1/2 (h)": 1.51}
{"Substance": "YGRKKRRERRRKKDRNKLRRQHSY [Example 17]", "T1/2 (h)": 1.66}
{"Substance": "YGRKKRRQRRRKKNRNKLRRQHSY-NH2 [Example 6]", "T1/2 (h)": 1.23}
{"Substance": "YGRKKRRQRRRKKNRNKLRRQHSY [Example 1, reference compound]", "T1/2 (h)": 0.76}

###

Measured MRT inf values are reported for all entries that follow.
- Test description: Pharmacokinetic characteristics in rats after intravenous administration (plasma, LC-MS/MS)
- Format: in vivo
- Recorded conditions: rat, SD rats, intravenous (tail vein), 10 mg/kg
Where no end group is shown, it is not given here.

{"Substance": "Ac-YGRKKRRQRRRKKNRNKLRRQHSY-NH2 [Example 7]", "MRT inf [h]": 1.93}
{"Substance": "YGRKKRRERRRKKDRNKLRRQHSY [Example 17]", "MRT inf [h]": 2.29}
{"Substance": "YGRKKRRQRRRKKNRNKLRRQHSY [Example 1, reference compound]", "MRT inf [h]": 0.87}
{"Substance": "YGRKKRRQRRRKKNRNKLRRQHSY-NH2 [Example 6]", "MRT inf [h]": 1.65}

###

- Test description: Pharmacokinetic characteristics in rats after intravenous administration (plasma, LC-MS/MS)
- Format: in vivo
- Recorded conditions: SD rats, intravenous (tail vein), 10 mg/kg
Where no end group is shown, it is not given here.

{"Substance": "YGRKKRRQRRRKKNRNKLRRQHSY [Example 1, reference compound]", "Reading unit": "L/kg", "Vss": 1.29}
{"Substance": "YGRKKRRERRRKKDRNKLRRQHSY [Example 17]", "Reading unit": "L/kg", "Vss": 23.1}
{"Substance": "Ac-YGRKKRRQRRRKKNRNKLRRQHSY-NH2 [Example 7]", "Reading unit": "L/kg", "Vss": 3.58}
{"Substance": "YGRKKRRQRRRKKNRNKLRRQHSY-NH2 [Example 6]", "Reading unit": "L/kg", "Vss": 2.53}

###

Measured Normalized cell viability (%) values are reported for all entries that follow.
- System: PC-12 cells
- Test description: Cell viability of PC-12 neural cells under glutamate stimulation (excitotoxic cell death model, propidium iodide/Hoechst staining)
- Assay type: cell-based, rat
- Recorded conditions: 10 nM compound, 30 min pretreatment, then glutamate stimulation 24 h; normalized to positive control MK-801
Where no end group is shown, it is not given here.
Outcome measure: Normalized cell viability (%)

{"Substance": "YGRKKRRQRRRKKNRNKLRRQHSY [Example 1, reference compound]", "Recorded number": 41.00}
{"Substance": "Ac-YGRKKRRERRRKKDRDKLRREHSY-NH2 [Example 18]", "Recorded number": 87.20}
{"Substance": "Ac-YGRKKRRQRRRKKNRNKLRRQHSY [Example 4]", "Recorded number": 85.00}
{"Substance": "YGRKKRRQRRRKKNRDKLRREHSY [Example 16]", "Recorded number": 85.15}
{"Substance": "Ac-YGRKKRRERRRKKDRDKVRREHSY-NH2 [Example 23]", "Recorded number": 74.16}
{"Substance": "YGRKKRRQRRRKKNRNKIRRQHSY-NH2 [Example 12]", "Recorded number": 58.59}
